- procedureText: Inhibition of Influenza A virus A/chicken/shandong/S2/02(H9N2) Neuraminidase
Label y when IC50 is strictly below 300 nM; at or above that, label n.

Some solved entries appear below for comparison.
{"structureSmiles": "CCC(CC)O[C@@H]1C=C(C(=O)NO)C[C@H](N)[C@H]1NC(C)=O", "groupLabel": "y"}
{"structureSmiles": "CCCCN[C@H]1CC(C(=O)O)=C[C@@H](OC(CC)CC)[C@@H]1NC(C)=O", "groupLabel": "n"}
{"structureSmiles": "CCC(CC)O[C@@H]1C=C(C(=O)O)C[C@H](N(Cc2ccccc2OC)C(=N)N)[C@H]1NC(C)=O", "groupLabel": "n"}
{"structureSmiles": "CCC(CC)O[C@@H]1C=C(C(=O)O)C[C@H](NCc2ccccc2)[C@H]1NC(C)=O", "groupLabel": "n"}
{"structureSmiles": "CCC(CC)O[C@@H]1C=C(C(=O)O)C[C@H](NC(=N)N)[C@H]1NC(C)=O", "groupLabel": "y"}

For `CCCCCN(C(=N)N)[C@H]1CC(C(=O)O)=C[C@@H](OC(CC)CC)[C@@H]1NC(C)=O` , is the recorded IC50 below the cut-off of 300 nM?
n

State whether 300 nM exceeds IC50 recorded for `CCC(CC)O[C@@H]1C=C(C(=O)O)C[C@H](NCc2ccc(-c3ccccc3)cc2Cl)[C@H]1NC(C)=O` .
n

Consider the molecule `CCC(CC)O[C@@H]1C=C(C(=O)O)C[C@H](NCc2ccc(-c3ccccc3)cc2)[C@H]1NC(C)=O` . Is its IC50 strictly less than 300 nM?
n

---

- procedureText: Inhibition of Influenza A virus A/chicken/shandong/S2/02(H9N2) Neuraminidase
quantity: pIC50
Answers are plain numbers, as −log10 of the molar value.

{"structureSmiles": "CCC(CC)O[C@@H]1C=C(C(=O)O)C[C@H](N(Cc2ccc(-c3ccccc3)cc2)C(=N)N)[C@H]1NC(C)=O", "pIC50": 6.43}

Note: attention shifts to another entry.
Record request: pIC50 value, item `CCC(CC)O[C@@H]1C=C(C(=O)O)C[C@H](NC/C=C/c2ccccc2)[C@H]1NC(C)=O`
5.49

---

- procedureText: Inhibition of Influenza A virus A/duck/china/1206/2012(H5N1) Neuraminidase
What IC50 was measured for each of the following?

Please review the entries below; each comes with its answer.
{"structureSmiles": "CCCCN(C(=N)N)[C@H]1CC(C(=O)O)=C[C@@H](OC(CC)CC)[C@@H]1NC(C)=O", "IC50": "> 3000 nM"}
{"structureSmiles": "CCC(CC)O[C@@H]1C=C(C(=O)O)C[C@H](NCCCN)[C@H]1NC(C)=O", "IC50": "> 200 nM"}
{"structureSmiles": "C=CCOc1ccccc1CN[C@H]1CC(C(=O)O)=C[C@@H](OC(CC)CC)[C@@H]1NC(C)=O", "IC50": "> 200 nM"}
{"structureSmiles": "CCC(CC)O[C@@H]1C=C(C(=O)NO)C[C@H](N)[C@H]1NC(C)=O", "IC50": "> 200 nM"}

// next item, IC50 requested
What value of measured IC50 is listed for `CCC(CC)CN(C(=N)N)[C@H]1CC(C(=O)O)=C[C@@H](OC(CC)CC)[C@@H]1NC(C)=O` ?
> 3000 nM

meta.source: BindingDB's records for doi:10.1021/jm500892k
